The reported measurements were obtained from patent US8933228B2.

What follows is a collection of pIC50 values obtained with p38 MAPK γ (MAPK12) (Homo sapiens (Human)).
pIC50: −log10 of the molar value.
quantity name: pIC50

[P] CCn1c(=O)[nH]c2nccc(Oc3ccc(NC(=O)Nc4cc(C(C)(C)C)nn4-c4ccc(OC)cc4)c4ccccc34)c21 [Example 11]
[Q] Cc1ccc(-n2nc(C(C)(C)C)cc2NC(=O)Nc2ccc(Oc3ccnc4[nH]c(=O)c(C)nc34)c3ccccc23)cc1 [Example 8]
Input: Kindly compare P with Q and tell me which has the lower pIC50 figure. Choose, then provide that item's label.
Output: P
(P: 6.46, Q: 7.00)

[a] CC(C)(C)c1cc(NC(=O)Nc2ccc(Oc3ccnc4[nH]c(=O)cnc34)c3ccccc23)n(-c2ccc(O)cc2)n1 [Example 16]
[b] Cc1ccc(-n2nc(C(C)(C)C)cc2NC(=O)Nc2ccc(Oc3ccnc4[nH]c(=O)n(C)c34)c3ccccc23)cc1 [Example 3]
[c] Cc1ccc(-n2nc(C(C)(C)C)cc2NC(=O)Nc2ccc(Oc3ccnc4[nH]c(=O)cnc34)c3ccccc23)cc1 [Example 6]
[d] COc1ccc(-n2nc(C(C)(C)C)cc2NC(=O)Nc2ccc(Oc3ccnc4[nH]c(=O)n(C)c34)c3ccccc23)cn1 [Example 24]
Input: Please give the order of these compounds when sorted by pIC50, largest value leading. Please list the labels according to the requested order.
Output: b, a, c, d

* * *

tested system: HCK enzyme (Homo sapiens (Human), UniProt P08631)
experiment summary: HCK enzyme inhibition assay (FRET, Z'-LYTE)
Format: biochemical
conditions: read-out: Enzyme Profile: IC50 Values HCK
quantity name: IC50 (nM)

Examples with their reported IC50 follow.
Input: Consider the molecule `COc1ccc(-n2nc(C(C)(C)C)cc2NC(=O)Nc2ccc(Oc3ccnc4[nH]c(=O)n(C)c34)c3ccccc23)cc1` and give its measured IC50.
Output: 3

Input: Given the molecule `COc1ccc(-n2nc(C(C)(C)C)cc2NC(=O)Nc2ccc(Oc3ccnc4[nH]c(=O)n(C)c34)c(Cl)c2Cl)cc1` , what is its reported IC50?
Output: 4

Input: What value of measured IC50 is listed for `CC(C)(C)c1cc(NC(=O)Nc2ccc(Oc3ccnc4[nH]c(=O)cnc34)c3ccccc23)n(-c2ccc(O)cc2)n1` ?
Output: 18

Input: Sample `CNS(=O)(=O)Cc1ccc(-n2nc(C(C)(C)C)cc2NC(=O)Nc2ccc(Oc3ccnc4[nH]c(=O)cnc34)c3ccccc23)cc1` — what was its IC50?
Output: 3

Input: Using the record for `COc1ccc(-n2nc(C(C)(C)C)cc2NC(=O)Nc2ccc(Oc3ccnc4[nH]c(=O)n(C(C)C)c34)c3ccccc23)cc1` , report its IC50.
Output: 8

Input: I would be grateful if you could share the reported IC50 for `Cc1nc2c(Oc3ccc(NC(=O)Nc4cc(C(C)(C)C)nn4-c4ccccc4)c4ccccc34)ccnc2[nH]c1=O` .
Output: 3

Input: Recorded IC50 of `Cc1ccc(-n2nc(C3CC3)cc2NC(=O)Nc2ccc(Oc3ccnc4[nH]c(=O)cnc34)c3ccccc23)cc1` , please.
Output: 9

Input: GET /values?readout=IC50&item= `CCn1c(=O)[nH]c2nccc(Oc3ccc(NC(=O)Nc4cc(C(C)(C)C)nn4-c4ccc(OC)cc4)c4ccccc34)c21`
Output: 5

Input: Entry under review: `COc1ccc(-n2nc(C(C)(C)C)cc2NC(=O)Nc2ccc(Oc3ccnc4[nH]c(=O)cnc34)c3ccccc23)cn1` . Reported IC50?
Output: 3

Input: // lookup IC50 for `Cc1ccc(-n2nc(C3(C)CC3)cc2NC(=O)Nc2ccc(Oc3ccnc4[nH]c(=O)cnc34)c3ccccc23)cc1`
Output: 4

[I] Cc1ccc(-n2nc(C(C)(C)C)cc2NC(=O)Nc2ccc(Oc3ncnc4[nH]c(=O)[nH]c34)c3ccccc23)cc1
[II] Cc1ccc(-n2nc(C(C)(C)C)cc2NC(=O)Nc2ccc(Oc3ccnc4[nH]c(=O)c(C)nc34)c3ccccc23)cc1
Input: Given the two records I and II , choose the one whose IC50 value is lower. API: response body contains the label of the selected item.
Output: II
